# assayed.target: Ubiquitin carboxyl-terminal hydrolase 8 (Homo sapiens) (UniProt P40818)
# Sequence (P40818 whole entry, looked up): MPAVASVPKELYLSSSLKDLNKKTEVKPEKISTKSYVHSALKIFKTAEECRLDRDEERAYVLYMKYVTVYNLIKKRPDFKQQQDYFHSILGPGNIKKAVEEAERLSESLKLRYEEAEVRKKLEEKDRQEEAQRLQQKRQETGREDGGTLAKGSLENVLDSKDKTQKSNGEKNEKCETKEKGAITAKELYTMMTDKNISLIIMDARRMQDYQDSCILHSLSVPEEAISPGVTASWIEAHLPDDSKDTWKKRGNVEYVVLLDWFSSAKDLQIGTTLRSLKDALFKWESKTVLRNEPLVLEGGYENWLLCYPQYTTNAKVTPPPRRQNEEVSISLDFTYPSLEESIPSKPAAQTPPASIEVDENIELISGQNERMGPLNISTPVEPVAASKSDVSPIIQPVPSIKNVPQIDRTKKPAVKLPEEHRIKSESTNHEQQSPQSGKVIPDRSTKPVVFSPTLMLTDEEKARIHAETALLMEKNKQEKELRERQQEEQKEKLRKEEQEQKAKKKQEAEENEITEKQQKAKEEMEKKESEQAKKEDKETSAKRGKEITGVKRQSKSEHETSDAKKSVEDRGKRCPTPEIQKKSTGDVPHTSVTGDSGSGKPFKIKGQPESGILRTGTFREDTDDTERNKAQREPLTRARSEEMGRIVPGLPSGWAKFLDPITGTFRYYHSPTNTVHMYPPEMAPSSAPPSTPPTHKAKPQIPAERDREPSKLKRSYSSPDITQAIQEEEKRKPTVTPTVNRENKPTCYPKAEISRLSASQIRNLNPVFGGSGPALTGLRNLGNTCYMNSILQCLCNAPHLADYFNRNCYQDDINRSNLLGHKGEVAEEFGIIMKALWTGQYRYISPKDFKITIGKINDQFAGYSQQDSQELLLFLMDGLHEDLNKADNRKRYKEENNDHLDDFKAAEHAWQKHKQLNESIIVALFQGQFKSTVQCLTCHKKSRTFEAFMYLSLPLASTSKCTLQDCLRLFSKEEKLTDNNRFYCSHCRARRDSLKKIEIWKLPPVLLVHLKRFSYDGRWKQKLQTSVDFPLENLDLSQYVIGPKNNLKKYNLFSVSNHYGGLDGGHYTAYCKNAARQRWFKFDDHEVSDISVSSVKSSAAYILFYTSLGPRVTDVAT
# assay.procedure: Ubiquitin-specific protease 8 inhibitors, concentration-effect, biochemical, validation of initial actives (AID 1645862);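 further: potency reflects inhibition of USP8 cleavage of a ubiquitin rhodamine substrate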
# condition: recombinant USP8 deubiquitinase activity assay
Activity calls are given as the source filed them. How the calls were made is not given here.
Recorded IC50 by entry

molecule: Cc1ccc(-c2cc(C(F)F)n3ncc(C(=O)Nc4ccc(O)cc4)c3n2)cc1
IC50: > 40 µM (inactive)
--
molecule: CSc1ccccc1C(=O)Nc1sc2c(c1C(N)=O)CCC(C)C2 (stereo not given)
IC50: > 40 µM (inactive)
--
molecule: O=S(=O)(Nc1ccc(Oc2ncnc3cc(Cl)ccc23)nc1)c1ccc(S(=O)(=O)c2ccccc2)s1
IC50: > 40 µM (inactive)
--
molecule: Cc1cccn2c(=O)c3cc(C#N)c(=O)n(-c4cccc(C(F)(F)F)c4)c3nc12
IC50: > 40 µM (inactive)
--
molecule: Cc1ccc(NC(=O)Nc2ccc(C)n(CC(=O)Nc3cc(C)ccc3C)c2=O)cc1
IC50: > 40 µM (inactive)

----------
# assayed.target: Ubiquitin carboxyl-terminal hydrolase 8 (Homo sapiens) (UniProt P40818)
# assay.procedure: Ubiquitin-specific protease 8 inhibitors, concentration-effect, biochemical, validation of initial actives (AID 1645862);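 further: potency reflects inhibition of USP8 cleavage of a ubiquitin rhodamine substrate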
# condition: recombinant USP8 deubiquitinase activity assay
Active and inactive are the calls of the source. The rule behind the calls is not given here.
Outcomes: active, inactive

molecule: Cc1ccc(Nc2nc(Nc3cccc(F)c3)nc3nccnc23)c(C)c1
category.label: inactive
//
molecule: Cn1cc(C(=O)Nc2ccccc2)c2[nH]c(=O)n(Cc3ccccc3)c(=O)c21
category.label: inactive
//
molecule: Fc1ccccc1-c1nc2c3cnn(-c4ccccc4)c3ncn2n1
category.label: inactive
//
molecule: COc1cccc(CNc2ccc(-c3nc(-c4ccccc4)no3)nn2)c1
category.label: inactive
//
molecule: Fc1cccc(Nc2nc(-c3ccccn3)nc3ccccc23)c1
category.label: inactive
//
molecule: O=C(Cn1ncc2c(=O)oc3ccccc3c21)NCc1ccc2c(c1)OCO2
category.label: inactive
//
molecule: O=c1[nH]c(C2CCN(S(=O)(=O)c3ccc(S(=O)(=O)NC4CCCC4)cc3)CC2)nc2c1nnn2Cc1cccc(Cl)c1
category.label: inactive
//
molecule: Cc1cc(NS(=O)(=O)c2ccc(NC(=O)c3ccc(N4CCCC4)c([N+](=O)[O-])c3)cc2)no1
category.label: inactive
//
molecule: Cn1c(=O)c2nc(-c3ccc(Cl)cc3)nnc2n(C)c1=O
category.label: active
//
molecule: CCC(=O)Nc1nc2cc(NC(=O)Nc3ccc(C)cc3)ccc2s1
category.label: inactive
//
molecule: O=C(Cn1c(=O)n(Cc2ccc(C(=O)NCc3ccco3)cc2)c(=O)c2ccccc21)Nc1ccc2c(c1)OCCO2
category.label: inactive
//
molecule: C=C/C(=C/C(=O)C[C@H](C)C[C@@H](C)CC[C@H](O)[C@H](C)C(=O)CC(O)[C@H](C)[C@@H](C)OC(=O)C[C@@H](O)C1=C(C)C(=O)OC1=O)CC (stereo not given in full)
category.label: active
//
molecule: Cc1ccc2[nH]c3c(=O)n(Cc4ccc(N(C)C)cc4)cnc3c2c1
category.label: active
//
molecule: CCCCCCCCCCCC1=C(O)C(=O)C=C(O)C1=O
category.label: active
//
molecule: O=C(COc1ccc(Cl)cc1)Nc1noc(-c2ccccc2)n1
category.label: active
//
molecule: COc1ccccc1C(=O)N1CCC[C@H](Cn2nnc(-c3cccnc3)n2)C1
category.label: inactive
//
molecule: CS(=O)(=O)c1cccc(C(=O)Nc2sc3c(c2C(N)=O)CCCC3)c1
category.label: inactive
//
molecule: CCc1ccc(-n2c(C)cc(/C=C3\C(=N)N4N=CSC4=NC3=O)c2C)cc1
category.label: inactive
//
molecule: COc1cc2c(=O)n(Cc3ccccc3)c(=O)n(CC(=O)N3CCCc4ccccc43)c2cc1OC
category.label: inactive
//
molecule: COc1ccc(Nc2nc3c(S(=O)(=O)c4ccc(C)cc4)nnn3c3ccsc23)c(OC)c1
category.label: inactive
//
molecule: Cc1c(-c2nc(-c3ccccc3Cl)no2)nnn1-c1cccc(F)c1
category.label: inactive
//
molecule: COc1ccc(-c2noc(CC(=O)Nc3cccc(OC)c3)n2)cc1
category.label: inactive
//
molecule: Cc1nc2c(-c3ccc(Cl)cc3)c[nH]n2c(=O)c1Cc1ccccc1
category.label: inactive
//
molecule: O=C(Cn1c(=O)[nH]c2c(-c3ccccc3)c[nH]c2c1=O)NCc1ccccc1Cl
category.label: inactive
//
molecule: Brc1ccc(Nc2nc(-c3ccccn3)nc3ccccc23)cc1
category.label: active
